Every entry's value here was drawn from patent US20210395344A1.

Target: T1, SARS-CoV-2 Spike Glycoprotein S1 (subunit 1) (SARS-CoV-2, UniProt P0DTC2 16-685)
T1 construct: also called S1 Monomer; SARS-CoV-2 S1
Assay: screening phage ELISA, mean
ELISA (Avg) values, listed per item

{"columns": ["Binder", "ELISA (Avg)"],
 "data": [
  ["1-23 (antibody, V domains shown) VH: EVQLLESGGGLVQPGGSLRLSCAASGFTFSSYAISWVRQAPGKGLEWVSIISGSGGSTYYADSVKGRFTISRDNSKNTLYLQMNSLRAEDTAVYYCAREGYRDYLWYFDLWGQGTLVTVSS VL: QSALTQPASVSGSPGQSITISCTGTSNDVGSYNLVSWYQQHPGKAPKLMIYEGNKRPSGVSNRFSGSKSGNTASLTISGLQAEDEADYYCCSYAGSYTVFGGGTKLTVL", 23.1],
  ["1-5 (antibody, V domains shown) VH: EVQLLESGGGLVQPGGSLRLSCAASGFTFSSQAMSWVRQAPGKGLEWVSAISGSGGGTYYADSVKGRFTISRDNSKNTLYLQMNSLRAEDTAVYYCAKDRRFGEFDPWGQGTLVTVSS VL: QSALTQPASVSGSPGQSITISCTGTSSGVGSYNLVSWYQQHPGKAPKLMIYEASKRPSGVSNRFSGSKSGNTASLTISGLQAEDEADYYCCSYAGSYTFAVFGGGTKLTVL", 20.6],
  ["1-53 (antibody, V domains shown) VH: EVQLLESGGGLVQPGGSLRLSCAASGFTFSSYTMSWVRQAPGKGLEWVSVISGSGGSTYYADSVKGRFTISRDNSKNTLYLQMNSLRAEDTAVYYCAREGYRDYLWYFDLWGQGTLVTVSS VL: QSALTQPASVSGSPGQSITISCTGTSTDVGSYNLVSWYQQHPGKAPKLMIYEGTKRPSGVSNRFSGSKSGNTASLTISGLQAEDEADYYCCSYAGSYTSVVFGGGTKLTVL", 21.7],
  ["1-8 (antibody, V domains shown) VH: EVQLLESGGGLVQPGGSLRLSCAASGFTFSSYDMSWVRQAPGKGLEWVSVISGSGGSTYYADSVKGRFTISRDNSKNTLYLQMNSLRAEDTAVYYCAKGPLVGWYFDLWGQGTLVTVSS VL: QSALTQPASVSGSPGQSITISCTGTSNDVGSYNLVSWYQQHPGKAPKLMIYEGSKRPSGVSNRFSGSKSGNTASLTISGLQAEDEADYYCCSYAGSRYVVFGGGTKLTVL", 19.3],
  ["1-24 (antibody, V domains shown) VH: EVQLLESGGGLVQPGGSLRLSCAASGFTFSSYAMNWVRQAPGKGLEWVSIISGSGGSTYYADSVKGRFTISRDNSKNTLYLQMNSLRAEDTAVYYCAREGYRDYLWYFDLWGQGTLVTVSS VL: QSALTQPASVSGSPGQSITISCTGTSSDVGYYNLVSWYQQHPGKAPKLMIYEGNKRPSGVSNRFSGSKSGNTASLTISGLQAEDEADYYCCSYAGGSVVFGGGTKLTVL", 32.9],
  ["1-3 (antibody, V domains shown) VH: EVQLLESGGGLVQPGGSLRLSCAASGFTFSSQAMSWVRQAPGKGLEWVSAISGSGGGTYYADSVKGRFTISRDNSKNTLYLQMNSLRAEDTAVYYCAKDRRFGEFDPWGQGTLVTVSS VL: QSALTQPASVSGSPGQSITISCTGISSDVGSYNLVSWYQQHPGKAPKLMIYEGTKRPSGVSNRFSGSKSGNTASLTISGLQAEDEADYYCCSYAGSSSFVVFGGGTKLTVL", 23.9],
  ["1-12 (antibody, V domains shown) VH: EVQLLESGGGLVQPGGSLRLSCAASGITFSSYAMSWVRQAPGKGLEWVSGISGSGGSTYYADSVKGRFTISRDNSKNTLYLQMNSLRAEDTAVYYCAKHGSGTIFGVVIAKYYFDYWGQGTLVTVSS VL: QSALTQPASVSGSPGQSITISCTGTSSDVGHYNLVSWYQQHPGKAPKLMIYEGTKRPSGVSNRFSGSKSGNTASLTISGLQAEDEADYYCCSYAGSSSFVVFGGGTKLTVL", 25.7],
  ["1-33 (antibody, V domains shown) VH: EVQLLESGGGLVQPGGSLRLSCAASGFTFSSYAMIWVRQAPGKGLEWVSAISGSGGSTFYADSVKGRFTISRDNSKNTLYLQMNSLRAEDTAVYYCTRPPYGDYGDYWGQGTLVTVSS VL: QSALTQPASVSGSPGQSITISCTGTSSDVGSYNLLSWYQQHPGKAPKLMIYEASKRPSGVSNRFSGSKSGNTASLTISGLQAEDEADYYCCSYAGSRTPVVFGGGTKLTVL", 17.6],
  ["1-51 (antibody, V domains shown) VH: EVQLLESGGGLVQPGGSLRLSCAASGFTFSSYAMSWVRQAPGKGLEWVSVISGSGGSTYYADSVKGRFTISRDNSKNTLYLQMNSLRAEDTAVYYCAREGYRDYLWYFDLWGQGTLVTVSS VL: QSALTQPASVSGSPGQSITISCTGTSSDVGSYDLVSWYQQHPGKAPKLMIYEGNKRPSGVSNRFSGSKSGNTASLTISGLQAEDEADYYCCSYAGSSVVFGGGTKLTVL", 7.1]
]}
